Sourced from paper PMC10524338

target-desc: T1, Karyopherin-β2 (Kapβ2), wild type, GST tag removed (UniProt Q92973-2 1-890)
T1 sequence (looked up): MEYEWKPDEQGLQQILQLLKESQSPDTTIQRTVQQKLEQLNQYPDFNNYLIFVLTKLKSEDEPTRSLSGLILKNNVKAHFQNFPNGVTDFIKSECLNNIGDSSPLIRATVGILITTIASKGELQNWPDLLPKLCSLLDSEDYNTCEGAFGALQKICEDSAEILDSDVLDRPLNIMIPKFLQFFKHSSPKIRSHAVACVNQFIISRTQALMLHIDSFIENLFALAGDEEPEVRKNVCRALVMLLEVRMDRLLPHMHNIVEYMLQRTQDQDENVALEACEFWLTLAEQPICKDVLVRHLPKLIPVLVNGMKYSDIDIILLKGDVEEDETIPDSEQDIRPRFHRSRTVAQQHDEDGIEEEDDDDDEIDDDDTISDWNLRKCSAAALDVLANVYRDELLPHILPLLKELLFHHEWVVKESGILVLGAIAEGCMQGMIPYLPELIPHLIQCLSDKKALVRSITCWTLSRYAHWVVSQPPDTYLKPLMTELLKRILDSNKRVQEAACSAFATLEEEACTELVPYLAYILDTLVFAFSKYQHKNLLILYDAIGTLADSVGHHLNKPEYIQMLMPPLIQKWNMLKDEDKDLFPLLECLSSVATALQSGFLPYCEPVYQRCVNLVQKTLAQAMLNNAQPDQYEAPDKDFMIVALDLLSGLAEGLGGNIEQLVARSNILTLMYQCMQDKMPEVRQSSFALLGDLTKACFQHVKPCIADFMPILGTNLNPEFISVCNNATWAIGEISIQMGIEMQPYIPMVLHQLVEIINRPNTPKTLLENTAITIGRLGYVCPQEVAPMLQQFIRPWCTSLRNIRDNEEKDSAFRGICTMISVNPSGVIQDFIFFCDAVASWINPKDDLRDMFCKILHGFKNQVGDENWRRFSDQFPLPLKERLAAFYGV
assay-notes: ITC
Item-by-item account of Kd
Please give a number only; it is taken to be in µM.

Known results for binders:
binder	observable	units-of-measure	value-observed
EVRTHYDPPRKLMAMQRPGPYDRPGAGRGYNSIGRG (domain or fragment, UniProt P55795 190-225, looked up) [MBP-HNRNPH2 PY-NLS (190-225)]	Kd	µM	0.04
MBP-HNRNPH2(103-225) P209L (domain or fragment, UniProt P55795 103-225, looked up) NSPDTANDGFVRLRGLPFGCSKEEIVQFFSGLEIVPNGMTLPVDFQGRSTGEAFVQFASQEIAEKALKKHKERIGHRYIEIFKSSRAEVRTHYDPPRKLMAMQRPGLYDRPGAGRGYNSIGRG	Kd	µM	16.3

Please turn your attention to the following entry.
q: # query: Kd of entry MBP-HNRNPH2(103-225) R206W (domain or fragment, UniProt P55795 103-225, looked up) NSPDTANDGFVRLRGLPFGCSKEEIVQFFSGLEIVPNGMTLPVDFQGRSTGEAFVQFASQEIAEKALKKHKERIGHRYIEIFKSSRAEVRTHYDPPRKLMAMQWPGPYDRPGAGRGYNSIGRG
a: 5.2
